These measurements were taken from patent US20140037642A1.

Molecular target: T1, hu INSR(ECD)-muIgG1Fc (human; mouse, Glycosylated. 87% of the preparation was cleaved between the alpha and beta chains (RKRR site), which stay disulfide-linked. Dimer through the receptor and the murine Fc.)
T1 construct: 87% processed into α and β chains; also called INSR(ECD)-muFc; INSR-mFc
Assay: phage Fab ELISA, plate coated with INSR-mFc at 5 µg/ml
Readout: binding result

L50H50 phage-displayed Fab (Fab, V domains shown) VH: QVQLQESGPGLVKPSETLSLTCTVSGGSIGNYDWSWIRQPPGKGLEWIGTIYSSGSTYYSPSLKSRLTISVDKSKNRFSLKLSSVTAADTAVYYCARARGYSSPFDPWGQGTLVTVSS VL: ETTLTQSPGTLSLSPGERATLSCRASQTISSSHLAWYQQKPGQSPRLLIYGAGYRATGIPDRFSGSGSGTDFTLTISRLEPEDFAVYYCQHYGSSLRTFGQGTKVEIK	no binding
L28H28 phage-displayed Fab (Fab, V domains shown) VH: QVQLQESGPGLVKPSETLSLTCTVSGGSIRNYYWSWIRQPPGKGLEWIGYISDSGNTNYNPSLKSRVTISVDTSKNQFSLKLTSVTATDTAAYFCARHRSSWAWYFDLWGRGTLVTVSS VL: SYVLTQPPSVSVSPGQTASITCSGDKLGDKYVGWYQQKAGQAPVLVIYQDNKRPSGIPERFSGSNSGNTASLTISGTQAMDEADYYCQAWDSGTVFGGGTKLTVL	no binding
L11H11 phage-displayed Fab (Fab, V domains shown) VH: QLQLQESGPGLVKPSGTLSLTCAVSGGSISSSNWWSWVRQPPGKGLEWIGEIYHSGSTNYNPSLKSRVTISVDKSKNQSSLKLSSVTAADTAVYYCARANRDDAFDIWGQGTMVTVSS VL: EIVLTQSPLSLPVTPGEPASISCRSSQSLLHSNGYNYLNWYLQKPGQSPQLLIYLGSNRASGVPDRFSASGSGTDFTLKISRVEAEDVGVYYCMQALQTPITFGQGTRLEIK	no binding
